# Tested on: HOP-62 NSCLC
# assay protocol: NCI tumour cell line growth inhibition, 48 h
Measured TGI by item

| compound | value units | relation operator | TGI |
| --- | --- | --- | --- |
| COc1cc(Br)c(C2OCCCO2)cc1OCc1ccccc1 | µM | > | 100 |
| COCc1nc(C#N)c(N)o1 | µM | > | 10 |
| CCOC(=O)c1sc(N)nc1N1CCCC1 | µM | > | 100 |
| Nc1cc2c(C3OC(CO)C(O)C3O)[nH]nc2c(=S)[nH]1 (centres undefined) | µM | > | 100 |
| Nc1nc(NCc2ccccc2)cc(NCc2ccccc2)n1 | µM | = | 41.7 |
| O=c1[nH]c2ccccc2c(=O)c2cc3ccccc3cc12 | µM | = | 25.9 |
| COc1ccc2c(c1)OCC1c3cc(OC)ccc3OC21 (centres undefined) | µM | > | 100 |
| O=C(NNC(=O)c1cc2ccccc2[nH]1)c1cc2ccccc2[nH]1 | µM | > | 100 |
| CCCCP1(=O)C=CC(Cl)=C(C)C1 (centres undefined) | µM | > | 100 |
| N#CC(C#N)=CNC(=S)Nc1ccc(S(=O)(=O)Nc2nccs2)cc1 | µM | > | 100 |
| O=C1N(c2ccccc2)C2(O)C(=O)c3ccccc3C2(O)N1c1ccccc1 (centres undefined) | µM | > | 100 |
| COc1cc(N(CCC#N)CCC#N)ccc1/C(N=Nc1cccc([N+](=O)[O-])c1)=N\NC(=O)c1ccc(C)cc1 | µM | > | 100 |
| O=C(c1ccco1)c1c(C(F)(F)F)n([O-])c2cc(Cl)c(Cl)cc2[n+]1=O | µM | = | 1 |
| C/C(=N\NC(N)=S)c1ccc(Oc2ccccc2)cc1 | µM | = | 46.6 |
| C(#C[C@@]12CCC[C@@H]1NCO2)c1ccc2c(c1)OCO2 | µM | > | 100 |
| FC(F)(F)c1ccc2c(c1)nc(Cc1ccc(Cl)cc1)n2CC1CCCN2CCCCC12 (centres undefined) | µM | = | 27.7 |
| CCn1nc(C#Cc2c(C)ccc3c(Nc4ccc(Cl)cc4)nccc23)c2c(N)ncnc21 | µM | = | 78 |
| O[C@@H]1CCCCN1Cc1cc2cc3c(cc2c2cc(OCc4ccccc4)ccc12)OCO3 | µM | = | 2.89 |
| C=C(CN1CCc2ccccc2C1)c1ccc(C(=O)Nc2cccc(N)c2)cc1 | µM | = | 68.4 |
